Biological target: PDE4B2 (GB no. M97515) (Homo sapiens)
Construct: made in house; host or cells: SF21 insect cells (baculovirus; virus made in SF9 cells)
Sequence (Q07343 1-564 isoform Q07343-2): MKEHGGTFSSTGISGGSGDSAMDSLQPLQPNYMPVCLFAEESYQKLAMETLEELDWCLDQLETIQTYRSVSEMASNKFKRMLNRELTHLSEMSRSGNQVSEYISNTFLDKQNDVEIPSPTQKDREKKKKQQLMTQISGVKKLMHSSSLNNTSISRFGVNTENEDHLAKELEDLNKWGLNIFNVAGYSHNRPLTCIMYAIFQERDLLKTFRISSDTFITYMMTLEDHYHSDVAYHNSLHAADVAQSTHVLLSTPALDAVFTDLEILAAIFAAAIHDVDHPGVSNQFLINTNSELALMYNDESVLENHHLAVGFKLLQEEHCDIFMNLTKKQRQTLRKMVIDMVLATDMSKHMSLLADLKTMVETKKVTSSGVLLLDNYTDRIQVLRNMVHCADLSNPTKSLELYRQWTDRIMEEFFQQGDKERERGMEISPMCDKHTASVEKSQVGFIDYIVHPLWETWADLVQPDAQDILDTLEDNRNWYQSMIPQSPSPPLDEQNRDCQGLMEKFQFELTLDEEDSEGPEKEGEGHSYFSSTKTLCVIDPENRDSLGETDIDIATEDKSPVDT
Assay: Inhibition of PDE4B2 activity, Method b (modified SPA test, recombinant PDE expressed in SF21 cells)
Type: biochemical
Conditions: 0.5 μM cAMP, read-out: Inhibition of the PDE4 activity, −log IC50 (converted)
Exercise: for every item that follows, state its recorded IC50.

# input Returns the measured IC50 for the input compound. Input: CCOc1cc2c(cc1OC)C(c1ccc(OC(F)F)c(OCC3CC3)c1)=N[C@@H]1CC[C@@H](O)C[C@H]21 (racemic)
# output 0.182 to 6.03 nM

# input Returns the measured IC50 for the input compound. Input: CCOc1cc2c(cc1OC)C(c1cccc(F)c1)=N[C@@H]1CC[C@@H](O)C[C@H]21 (racemic)
# output 0.182 to 6.03 nM

# input Returns the measured IC50 for the input compound. Input: CCOc1cc2c(cc1OC)C(c1ccc(OC)c(F)c1)=N[C@@H]1CC[C@@H](O)C[C@H]21 (racemic)
# output 0.182 to 6.03 nM

# input Returns the measured IC50 for the input compound. Input: CCOc1cc2c(cc1OC)C(c1ccc(OC(F)F)c(OC(F)F)c1)=N[C@@H]1CC[C@@H](O)C[C@H]21 (racemic)
# output 0.182 to 6.03 nM

# input Returns the measured IC50 for the input compound. Input: CCOc1cc2c(cc1OC)C(c1ccc(F)cc1)=N[C@@H]1CC[C@@H](O)C[C@H]21 (racemic)
# output 0.182 to 6.03 nM

# input Returns the measured IC50 for the input compound. Input: COc1cc2c(cc1OC)[C@H]1C[C@H](O)CC[C@H]1N=C2c1ccc(C)cc1 (racemic)
# output 0.182 to 6.03 nM

# input Returns the measured IC50 for the input compound. Input: CCOc1cc2c(cc1OC)C(c1ccc(F)c(F)c1)=N[C@@H]1CC[C@@H](O)C[C@H]21 (racemic)
# output 0.182 to 6.03 nM
